molecular target: Cannabinoid receptor 2 (Homo sapiens, UniProt P34972); assay: Displacement of [3H]CP-55940 from human CB2 receptor expressed in CHO cells; format: cell-based; conditions: cho
Sequence (P34972 whole entry): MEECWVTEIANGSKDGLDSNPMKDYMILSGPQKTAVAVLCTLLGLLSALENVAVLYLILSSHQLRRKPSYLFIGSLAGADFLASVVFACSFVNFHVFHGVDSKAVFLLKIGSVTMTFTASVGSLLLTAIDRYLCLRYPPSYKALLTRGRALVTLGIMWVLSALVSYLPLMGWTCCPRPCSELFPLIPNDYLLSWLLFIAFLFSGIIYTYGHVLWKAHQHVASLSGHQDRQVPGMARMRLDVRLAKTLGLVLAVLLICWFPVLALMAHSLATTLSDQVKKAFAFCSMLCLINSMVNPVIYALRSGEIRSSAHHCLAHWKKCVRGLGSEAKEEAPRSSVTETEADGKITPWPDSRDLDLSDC

| MOLECULE | TARGET SYSTEM | Ki |
| --- | --- | --- |
| C[S+]([O-])c1c(C(=O)NN2CCCCC2)nc(-c2ccc(Cl)cc2Cl)n1-c1ccc(Cl)cc1 (single isomer, unassigned; (+)) | Cannabinoid receptor 2 (Homo sapiens, UniProt P34972) | > 1000 nM |
| C[S+]([O-])c1c(C(=O)NN2CCCCC2)nc(-c2ccc(Cl)cc2Cl)n1-c1ccc(Cl)cc1 (stereo in doubt; 12) | Cannabinoid receptor 2 (Homo sapiens, UniProt P34972) | > 1000 nM |

###

pKi: −log10 of the molar value.
The molecules below have reported pKi for Cannabinoid receptor 1 (Homo sapiens, UniProt P21554).
ASSAY READOUT: pKi

| MOLECULE | ASSAY READOUT | VALUE REPORTED |
| --- | --- | --- |
| CCSc1c(C(=O)NN2CCCCC2)nc(-c2ccc(Cl)cc2Cl)n1-c1ccc(Cl)cc1 | pKi | 7.29 |
| CSc1c(C(=O)NN2CCCC2)nn(-c2ccc(Cl)cc2Cl)c1-c1ccc(Cl)cc1 | pKi | 8.52 |
| CSc1c(C(=O)NN2CCCCCC2)nc(-c2ccc(Cl)cc2Cl)n1-c1ccc(Cl)cc1 | pKi | 7.92 |
| C[S+]([O-])c1c(C(=O)NN2CCCCC2)nn(-c2ccc(Cl)cc2Cl)c1-c1ccc(Cl)cc1 (stereo not given) | pKi | 7.70 |
| O=C(NN1CCCCC1)c1nc(-c2ccc(Cl)cc2Cl)n(-c2ccc(Cl)cc2)c1CO | pKi | 7.47 |
| C[S+]([O-])c1c(C(=O)NN2CCCCC2)nc(-c2ccc(Cl)cc2Cl)n1-c1ccc(Cl)cc1 (stereo in doubt; 12) | pKi | 7.31 |
| C[S+]([O-])c1c(C(=O)NN2CCCCC2)nc(-c2ccc(Cl)cc2Cl)n1-c1ccc(Cl)cc1 (single isomer, unassigned; (+)) | pKi | 7.89 |
| CSc1c(C(=O)NN2CCCCC2)nc(-c2ccc(Cl)cc2Cl)n1-c1ccc(Cl)cc1 | pKi | 7.91 |
| C[S+]([O-])c1c(C(=O)NN2CCCCC2)nc(-c2ccc(Cl)cc2Cl)n1-c1ccc(Cl)cc1 (single isomer, unassigned; (-)) | pKi | 7.70 |
| CSc1c(C(=O)NN2CCCCC2)nn(-c2ccc(Cl)cc2Cl)c1-c1ccc(Cl)cc1 | pKi | 7.89 |

###

assay: Lipophilicity log P of compound at pH 7.4 by RP-HPLC analysis; assay type: physicochemical; conditions: buffer

| MOLECULE | logP |
| --- | --- |
| CSc1c(C(=O)NN2CCCC2)nn(-c2ccc(Cl)cc2Cl)c1-c1ccc(Cl)cc1 | 4.7 |
| C[S+]([O-])c1c(C(=O)NN2CCCCC2)nc(-c2ccc(Cl)cc2Cl)n1-c1ccc(Cl)cc1 (stereo in doubt; 12) | 3.7 |
| CS(=O)(=O)c1c(C(=O)NN2CCCCC2)nc(-c2ccc(Cl)cc2Cl)n1-c1ccc(Cl)cc1 | 3.5 |
| C[S+]([O-])c1c(C(=O)NN2CCCCC2)nn(-c2ccc(Cl)cc2Cl)c1-c1ccc(Cl)cc1 (stereo not given) | 3.7 |
| CSc1c(C(=O)NN2CCCCC2)nc(-c2ccc(Cl)cc2Cl)n1-c1ccc(Cl)cc1 | 4.8 |

###

biological target: Cannabinoid receptor 2 (Homo sapiens, UniProt P34972); experiment: Displacement of [3H]CP-55940 from human CB2 receptor expressed in CHO cells; type: cell-based
pKi: −log10 of the molar value.
ASSAY READOUT: pKi

| COMPOUND | VALUE COMPARATOR | VALUE REPORTED |
| --- | --- | --- |
| CS(=O)(=O)c1c(C(=O)NN2CCCCC2)nc(-c2ccc(Cl)cc2Cl)n1-c1ccc(Cl)cc1 | < | 5.00 |
| CCSc1c(C(=O)NN2CCCCC2)nc(-c2ccc(Cl)cc2Cl)n1-c1ccc(Cl)cc1 | < | 6.00 |
| O=C(NN1CCCCC1)c1nc(-c2ccc(Cl)cc2Cl)n(-c2ccc(Cl)cc2)c1I | = | 5.74 |
| CSc1c(C(=O)NN2CCCCC2)nn(-c2ccc(Cl)cc2Cl)c1-c1ccc(Cl)cc1 | = | 6.09 |
| CSc1c(C(=O)NN2CCCCCC2)nc(-c2ccc(Cl)cc2Cl)n1-c1ccc(Cl)cc1 | = | 6.49 |
| C[S+]([O-])c1c(C(=O)NN2CCCCC2)nn(-c2ccc(Cl)cc2Cl)c1-c1ccc(Cl)cc1 (stereo unspecified) | = | 6.40 |
| CSc1c(C(=O)NN2CCCCCC2)nn(-c2ccc(Cl)cc2Cl)c1-c1ccc(Cl)cc1 | = | 6.43 |
| O=C(NN1CCCCC1)c1nc(-c2ccc(Cl)cc2Cl)n(-c2ccc(Cl)cc2)c1CO | = | 5.12 |
| C[S+]([O-])c1c(C(=O)NN2CCCCC2)nc(-c2ccc(Cl)cc2Cl)n1-c1ccc(Cl)cc1 (single isomer, unassigned; (-)) | < | 6.00 |
| CSc1c(C(=O)NN2CCCC2)nn(-c2ccc(Cl)cc2Cl)c1-c1ccc(Cl)cc1 | = | 6.20 |
| CSc1c(C(=O)NN2CCCCC2)nc(-c2ccc(Cl)cc2Cl)n1-c1ccc(Cl)cc1 | = | 5.97 |

###

species on record: Homo sapiens; experiment: Selectivity ratio Ki for human CB2 receptor to Ki for human CB1 receptor
ASSAY READOUT: Ratio IC50

| MOLECULE | VALUE REPORTED |
| --- | --- |
| CCSc1c(C(=O)NN2CCCCC2)nc(-c2ccc(Cl)cc2Cl)n1-c1ccc(Cl)cc1 | > 19 |
| CS(=O)(=O)c1c(C(=O)NN2CCCCC2)nc(-c2ccc(Cl)cc2Cl)n1-c1ccc(Cl)cc1 | > 840 |
| CSc1c(C(=O)NN2CCCC2)nc(-c2ccc(Cl)cc2Cl)n1-c1ccc(Cl)cc1 | > 112 |
| C[S+]([O-])c1c(C(=O)NN2CCCCC2)nc(-c2ccc(Cl)cc2Cl)n1-c1ccc(Cl)cc1 (single isomer, unassigned; (+)) | > 77 |

Ref: ChEMBL document CHEMBL1157923
